Target: Arginase-2, mitochondrial (Homo sapiens)
Sequence (whole entry): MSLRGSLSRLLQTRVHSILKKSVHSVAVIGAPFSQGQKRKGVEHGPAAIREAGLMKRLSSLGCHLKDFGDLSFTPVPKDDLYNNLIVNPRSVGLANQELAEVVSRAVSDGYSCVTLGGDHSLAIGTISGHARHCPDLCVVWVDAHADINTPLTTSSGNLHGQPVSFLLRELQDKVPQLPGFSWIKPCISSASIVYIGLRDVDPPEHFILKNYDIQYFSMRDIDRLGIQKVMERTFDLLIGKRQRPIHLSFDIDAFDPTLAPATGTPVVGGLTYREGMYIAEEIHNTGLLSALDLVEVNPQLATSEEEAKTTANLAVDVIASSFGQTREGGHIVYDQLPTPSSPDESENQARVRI
Assay: in vitro enzyme assay to detect the production of urea directly proportional to the activity of Arginase II
Assay type: functional
Parameters: scale not given: in the data most compounds retested in dose-response had high values
Details: 33.3 µM
Percent Effect values for the compounds below.
measurement-label: Percent Effect (%)

>>> value_measured("COc1cc(C)nc(N2CCN(C(=O)c3ccc[nH]3)CC2)n1")
-5.21
>>> value_measured("Cn1ncc2c(NCCC34CCCN3CCC4)nc(C3CCCC3)nc21")
4.09
>>> value_measured("COc1ccc(OC)c(CN2CCCCCC2c2cccs2)c1 (configuration not stated)")
3.23
>>> value_measured("CC(C)n1c(C2CCCN(CCS(C)(=O)=O)C2)nc2ccccc21 (configuration not stated)")
13.8
>>> value_measured("Cc1cc(C)n(C2CCCN(C(=O)CCCNc3ncccn3)C2)n1 (configuration not stated)")
2.8
>>> value_measured("CN1CCOC(CNCc2nc(-c3ccccc3)cs2)C1 (configuration not stated)")
-1.9
>>> value_measured("Cc1cc(CC(=O)N2CCCC2c2nc(C(C)C)no2)on1 (configuration not stated)")
3.97
>>> value_measured("Cn1cc(C2CCCN2C(=O)CCCOCc2ccccc2)cn1 (configuration not stated)")
-1.9
>>> value_measured("O=C(c1cccnc1N1CCOCC1)N1CCCC1Cn1cccn1 (configuration not stated)")
0.632
>>> value_measured("Cc1cnn(CC2CCCN2C(=O)c2cccc(-n3cnnn3)c2)c1 (configuration not stated)")
6.08
>>> value_measured("Cn1cc(C(=O)CC2CCCN2C(=O)c2cncc3ccccc23)cn1 (configuration not stated)")
4.95
>>> value_measured("CNc1nc2c(s1)C(c1c(F)cccc1Cl)CC(=O)N2 (configuration not stated)")
-4.73
